Ref: the NIST ThermoML archive (doi:10.1016/j.fluid.2014.11.020)

test: activity coefficient (dimensionless); of the first substance listed, at infinite dilution; xn = mol fraction of the nth substance listed; settings: 333.15 K; Liquid; Chromatography; x1 = 0
measured attribute: activity coefficient
Respond numerically, and do not add a unit to the figure.

activity coefficient in this record for c1ccccc1 [benzene] + N#C[N-]C#N.N#C[N-]C#N.c1ccc(Cn2cc[n+](COCCCOC[n+]3ccn(Cc4ccccc4)c3)c2)cc1 : 2.95

// activity coefficient lookup, molecule = CCCO [propan-1-ol] + CCCOC[n+]1ccn(C)c1.N#C[N-]C#N , result: 0.95

For reference, reported activity coefficient for CCCCCCC [heptane] + CCCCCCCCn1cc[n+](COCCC)c1C.N#C[N-]C#N stands at 8.18

The molecule identified as C[N+](=O)[O-] [nitromethane] + CCCOC[n+]1ccn(C)c1.N#C[N-]C#N registered its activity coefficient at 0.7

Item: CCC(=O)CC [pentan-3-one] + CCCOC[n+]1ccn(Cc2ccccc2)c1.O=S(=O)([N-]S(=O)(=O)C(F)(F)F)C(F)(F)F | activity coefficient: 0.43

Measured activity coefficient of CC1CCCCC1 [methylcyclohexane] + Cn1cc[n+](COCCCOC[n+]2ccn(C)c2)c1.O=S(=O)([N-]S(=O)(=O)C(F)(F)F)C(F)(F)F.O=S(=O)([N-]S(=O)(=O)C(F)(F)F)C(F)(F)F : 18.3

Value of activity coefficient reported for the molecule CC(C)OC(C)C [diisopropyl ether] + CCCOC[n+]1ccn(C)c1.F[B-](F)(F)F is 28.5

Record Cc1ccccc1 [toluene] + CCCOC[n+]1ccc(N(C)C)cc1.O=S(=O)([N-]S(=O)(=O)C(F)(F)F)C(F)(F)F . Reported activity coefficient: 1.04

According to the records, this molecule CCC(=O)CC [pentan-3-one] + CCCCCCCCn1cc[n+](COCCCOC[n+]2ccn(CCCCCCCC)c2C)c1C.O=S(=O)([N-]S(=O)(=O)C(F)(F)F)C(F)(F)F.O=S(=O)([N-]S(=O)(=O)C(F)(F)F)C(F)(F)F displays activity coefficient of 0.28

activity coefficient measured on CCC(=O)CC [pentan-3-one] + Cn1cc[n+](COCCCOC[n+]2ccn(C)c2)c1.O=S(=O)([N-]S(=O)(=O)C(F)(F)F)C(F)(F)F.O=S(=O)([N-]S(=O)(=O)C(F)(F)F)C(F)(F)F = 0.63

Looking up CCCCO [butan-1-ol] + CCCOC[n+]1ccn(C)c1.N#C[N-]C#N , I found its activity coefficient recorded as 1.32

activity coefficient in this record for Cc1cccc(C)c1 [1,3-dimethylbenzene] + Cn1cc[n+](COCCCOC[n+]2ccn(C)c2)c1.N#C[N-]C#N.N#C[N-]C#N : 10.7

# molecule CCCCCCCCCCC [undecane] + CCCOC[n+]1ccn(C)c1.O=S(=O)([N-]S(=O)(=O)C(F)(F)F)C(F)(F)F ; its activity coefficient = 85.9

Quick note, activity coefficient for CO [methanol] + CCCCCCCCn1cc[n+](COCCC)c1C.N#C[N-]C#N landed at 0.29
